Quick record: pIC50, human HIF-PHD3 (Homo sapiens).
// pIC50 here means minus log10 of the molar concentration (mol/L)

Solved entries (count: 6):
Cc1ccc2cc(Cn3ncc4nc(-n5cc(C(=O)O)cn5)nc(O)c43)ccc2c1 ... 6.70
O=C(O)c1cnn(-c2nc(O)c3c(cnn3C3CCCCC3)n2)c1 ... 6.42
O=C(O)c1cnn(-c2nc(O)c3c(cnn3Cc3cc(-c4ccccc4)ccc3F)n2)c1 ... 6.70
O=C(O)c1cnn(-c2nc(O)c3c(cnn3Cc3cc(F)c(-c4ccccc4F)cc3F)n2)c1 ... 7.05
C[C@@H](c1ccc(F)cc1F)n1ncc2nc(-n3cc(C(=O)O)cn3)nc(O)c21 ... 6.27
O=C(O)c1cnn(-c2nc(O)c3c(cnn3Cc3cccc(-c4ccccc4C(F)(F)F)c3)n2)c1 ... 6.19

Query: Checklist item: pIC50 tested on human HIF-PHD3 (Homo sapiens), entry O=C(O)c1cnn(-c2nc(O)c3c(cnn3Cc3ccc(-c4ccc(C(F)(F)F)cc4)cc3)n2)c1 , value?
Result: 6.72

Query: Can you look up pIC50 on human HIF-PHD3 (Homo sapiens) for CC(c1cc(Cl)c(Cl)s1)n1ncc2nc(-n3cc(C(=O)O)cn3)nc(O)c21 (single isomer, unassigned) [Example 320] ?
Result: 6.32
